The values you see were collected from ChEMBL document CHEMBL4261516.

Test system: NCI-H460
Assay: Cytotoxicity against human NCI-H460 cells after 48 hrs by MTT assay
Type: functional, cell-based
Conditions: NCI-H460, 48 h
Readout: IC50

Annotate the molecule CCOP(=O)(OCC)C(Nc1ccc(C(F)(F)F)cc1)c1cc2ccccc2[nH]c1=O (stereo unspecified) with its measured IC50.
> 100 µM

Using known records, supply IC50 for CCOP(=O)(OCC)C(Nc1ccc([N+](=O)[O-])cc1)c1cc2ccccc2[nH]c1=O (stereo unspecified)
> 100 µM

Retrieve IC50 measured for CCOP(=O)(OCC)C(Nc1ccc(C(F)(F)F)cc1)c1cc2cc(C)ccc2[nH]c1=O (stereo unspecified) and print it.
> 100 µM

Provide one value: measured IC50 of CCOP(=O)(OCC)C(Nc1ccc(F)cc1)c1cc2cc(OC)ccc2[nH]c1=O (stereo unspecified)
> 100 µM

Kindly indicate its recorded IC50. Item: Cc1ccc2[nH]c(=O)c(C=O)cc2c1
> 200 µM

Others:
Given CCOP(=O)(OCC)C(Nc1ccc(F)cc1)c1cc2cc3c(cc2[nH]c1=O)OCO3 (stereo unspecified) , respond with its IC50.
59.6 µM

Name the recorded IC50 of the item CCOP(=O)(OCC)C(Nc1ccccc1)c1cc2cc(C)ccc2[nH]c1=O (stereo unspecified) in your answer.
> 100 µM

Supply recorded IC50 for CCCCNC(c1cc2ccccc2[nH]c1=O)P(=O)(OCC)OCC (stereo unspecified) here.
> 100 µM

Return IC50 (reported value) for this molecule: CCOP(=O)(OCC)C(Nc1ccc(C(F)(F)F)cc1)c1cc2cc(OC)ccc2[nH]c1=O (stereo unspecified)
> 100 µM

Output IC50 of CCOP(=O)(OCC)C(Nc1ccc(F)cc1)c1cc2ccccc2[nH]c1=O (stereo unspecified)
> 100 µM

For the molecule CCOP(=O)(OCC)C(Nc1cccc(C)c1)c1cc2cc(OC)ccc2[nH]c1=O (stereo unspecified) , report IC50.
> 100 µM

Give the measured IC50 for CCCCNC(c1cc2cc(OC)ccc2[nH]c1=O)P(=O)(OCC)OCC (stereo unspecified)
> 100 µM

Identify the reported IC50 for the following entry. O=Cc1cc2ccccc2[nH]c1=O
> 200 µM

Identify measured IC50 corresponding to COc1ccc2[nH]c(=O)c(C=O)cc2c1
> 200 µM
